test system: CMK; test: CellTox Green cytotoxicity fluorescence relative to DMSO vehicle (fold of vehicle RFU); higher = more cell death (loss of membrane integrity), active = 2 or more; details: 0.01 µM; 72 h
# CellTox Green cytotoxicity fluorescence annotations

Examples with answers:
Molecule	Reported value
Fc1ccc(CNc2ncnc3ccc(F)cc23)cc1 [Spautin-1]	1.16 (inactive)
CC1(C)CC[C@]2(NC(=O)C(C)(F)F)CC[C@]3(C)[C@H](C(=O)C=C4[C@@]5(C)C=C(C#N)C(=O)C(C)(C)[C@@H]5CC[C@]43C)[C@@H]2C1 [Omaveloxolone]	1 (inactive)

Value of measured CellTox Green cytotoxicity fluorescence for the entry O=C1C(=O)N(Cc2ccc(Cl)c(Cl)c2)c2ccccc21 [Apoptosis Activator 2] : 1.01 (inactive)

Data provenance is the supplement of paper PMC7595190.
